Values compiled from ChEMBL document CHEMBL2021813.

- target-entity: Delta-type opioid receptor (Homo sapiens)
- Sequence (P41143 whole entry): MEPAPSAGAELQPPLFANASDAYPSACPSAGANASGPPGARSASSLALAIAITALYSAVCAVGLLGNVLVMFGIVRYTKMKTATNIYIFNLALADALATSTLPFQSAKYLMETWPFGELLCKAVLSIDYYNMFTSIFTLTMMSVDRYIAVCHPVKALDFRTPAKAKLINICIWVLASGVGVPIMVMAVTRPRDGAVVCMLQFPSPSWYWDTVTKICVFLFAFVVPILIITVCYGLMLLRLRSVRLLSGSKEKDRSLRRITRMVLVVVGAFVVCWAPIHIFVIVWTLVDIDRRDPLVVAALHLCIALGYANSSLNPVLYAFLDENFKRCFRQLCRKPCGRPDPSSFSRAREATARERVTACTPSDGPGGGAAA
- experimental-protocol: Displacement of [3H]DADLE from human recombinant delta opioid receptor expressed in CHO cells at 1 uM after 2 hrs by liquid scintillation counting
- Format: cell-based
Each entry falls into one class according to its Activity; the ranges are lower band = under 50%, central band = from 50% up to 80%, upper band = 80% and over

>>> qualitative_label("COC(=O)[C@@H]1C[C@H](OC(C)=O)C(=O)[C@H]2[C@@]1(C)CC[C@H]1C(=O)O[C@H](C(=O)c3cccc(C(F)(F)F)c3)C[C@]21C")
"lower band"

Band assignment needed for COC(=O)[C@@H]1C[C@H](OC(C)=O)C(=O)[C@H]2[C@@]1(C)CC[C@H]1C(=O)O[C@H](C(=O)c3csc4ccccc34)C[C@]21C please.
central band

Band assignment needed for COC(=O)[C@@H]1C[C@H](OC(C)=O)C(=O)[C@H]2[C@@]1(C)CC[C@H]1C(=O)O[C@H](C(=O)c3cccc(OC)c3)C[C@]21C please.
central band

Band assignment needed for COC(=O)[C@@H]1C[C@H](OC(C)=O)C(=O)[C@H]2[C@@]1(C)CC[C@H]1C(=O)O[C@H](c3ccco3)C[C@]21C please.
upper band

Band assignment needed for COC(=O)[C@@H]1C[C@H](OC(C)=O)C(=O)[C@H]2[C@@]1(C)CC[C@H]1C(=O)O[C@H](C(=O)c3cccc(C#N)c3)C[C@]21C please.
central band

Band assignment needed for COC(=O)[C@@H]1C[C@H](OC(C)=O)C(=O)[C@H]2[C@@]1(C)CC[C@H]1C(=O)O[C@H](C(=O)c3ccccc3OC)C[C@]21C please.
upper band

Band assignment needed for COC(=O)[C@@H]1C[C@H](OC(C)=O)C(=O)[C@H]2[C@@]1(C)CC[C@H]1C(=O)O[C@H](C(=O)c3cccc(OC(F)(F)F)c3)C[C@]21C please.
lower band

Band assignment needed for COC(=O)[C@@H]1C[C@H](OC(C)=O)C(=O)[C@H]2[C@@]1(C)CC[C@H]1C(=O)O[C@H](C(=O)c3cccc(C(N)=O)c3)C[C@]21C please.
central band

----------
Overview of reported pEC50 across a group of compounds:
- target-entity: Kappa-type opioid receptor (Homo sapiens)
- Sequence (P41145 whole entry): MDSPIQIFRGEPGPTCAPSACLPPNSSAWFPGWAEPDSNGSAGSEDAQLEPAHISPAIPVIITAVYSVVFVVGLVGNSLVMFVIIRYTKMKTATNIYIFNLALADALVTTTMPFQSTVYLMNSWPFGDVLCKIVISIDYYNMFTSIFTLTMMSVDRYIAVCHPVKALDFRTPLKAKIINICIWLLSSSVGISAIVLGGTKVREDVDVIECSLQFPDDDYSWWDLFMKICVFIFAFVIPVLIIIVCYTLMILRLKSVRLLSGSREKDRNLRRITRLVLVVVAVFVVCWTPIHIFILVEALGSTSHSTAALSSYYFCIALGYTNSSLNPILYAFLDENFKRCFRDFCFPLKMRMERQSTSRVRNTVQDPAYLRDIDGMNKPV
- experimental-protocol: Agonist activity at human recombinant kappa opioid receptor expressed in CHO cells assessed as [35S]GTP-gamma-S binding after 3 hrs by liquid scintillation counting
- Assay type: functional, cell-based
A value of pEC50 is the negative decimal logarithm of a concentration given in moles per litre.

Worked examples, 4 compounds total:
>>> endpoint_value("COC(=O)[C@@H]1C[C@H](OC(C)=O)C(=O)[C@H]2[C@@]1(C)CC[C@H]1C(=O)O[C@H](C(=O)c3cccc(C(N)=O)c3)C[C@]21C")
6.14
>>> endpoint_value("COC(=O)[C@@H]1C[C@H](OC(C)=O)C(=O)[C@H]2[C@@]1(C)CC[C@H]1C(=O)O[C@H](C(=O)c3ccco3)C[C@]21C")
5.67
>>> endpoint_value("COC(=O)[C@@H]1C[C@H](OC(C)=O)C(=O)[C@H]2[C@@]1(C)CC[C@H]1C(=O)O[C@H](C(=O)c3ccsc3)C[C@]21C")
6.21
>>> endpoint_value("COC(=O)[C@@H]1C[C@H](OC(C)=O)C(=O)[C@H]2[C@@]1(C)CC[C@H]1C(=O)O[C@H](C(=O)c3cccs3)C[C@]21C")
5.79

Query pEC50 for COC(=O)[C@@H]1C[C@H](OC(C)=O)C(=O)[C@H]2[C@@]1(C)CC[C@H]1C(=O)O[C@H](c3ccco3)C[C@]21C
6.85

----------
Overview of reported Ki across a group of compounds:
- target-entity: Kappa-type opioid receptor (Homo sapiens)
- experimental-protocol: Displacement of [3H]U69593 from human recombinant kappa opioid receptor expressed in CHO cells after 2 hrs by liquid scintillation counting
Write the value in µM as a bare number.

>>> endpoint_value("COC(=O)[C@@H]1C[C@H](OC(C)=O)C(=O)[C@H]2[C@@]1(C)CC[C@H]1C(=O)O[C@H](C(=O)c3ccccc3O)C[C@]21C")
0.5
>>> endpoint_value("COC(=O)[C@@H]1C[C@H](OC(C)=O)C(=O)[C@H]2[C@@]1(C)CC[C@H]1C(=O)O[C@H](C(=O)c3cccc(C(N)=O)c3)C[C@]21C")
0.04
>>> endpoint_value("COC(=O)[C@@H]1C[C@H](OC(C)=O)C(=O)[C@H]2[C@@]1(C)CC[C@H]1C(=O)O[C@H](C(=O)c3ccccc3OC)C[C@]21C")
1.07
>>> endpoint_value("COC(=O)[C@@H]1C[C@H](OC(C)=O)C(=O)[C@H]2[C@@]1(C)CC[C@H]1C(=O)O[C@H](C(=O)c3ccsc3)C[C@]21C")
0.031
>>> endpoint_value("COC(=O)[C@@H]1C[C@H](OC(C)=O)C(=O)[C@H]2[C@@]1(C)CC[C@H]1C(=O)O[C@H](C(=O)c3cc4ccccc4s3)C[C@]21C")
9.21
>>> endpoint_value("COC(=O)[C@@H]1C[C@H](OC(C)=O)C(=O)[C@H]2[C@@]1(C)CC[C@H]1C(=O)O[C@H](C(=O)c3ccco3)C[C@]21C")
0.08
>>> endpoint_value("COC(=O)[C@@H]1C[C@H](OC(C)=O)C(=O)[C@H]2[C@@]1(C)CC[C@H]1C(=O)O[C@H](C(=O)c3ccoc3)C[C@]21C")
0.15
>>> endpoint_value("COC(=O)[C@@H]1C[C@H](OC(C)=O)C(=O)[C@H]2[C@@]1(C)CC[C@H]1C(=O)O[C@H](C(=O)c3cccc(O)c3)C[C@]21C")
0.11
>>> endpoint_value("COC(=O)[C@@H]1C[C@H](OC(C)=O)C(=O)[C@H]2[C@@]1(C)CC[C@H]1C(=O)O[C@H](C(=O)c3cccc(C#N)c3)C[C@]21C")
0.22

Query Ki for COC(=O)[C@@H]1C[C@H](OC(C)=O)C(=O)[C@H]2[C@@]1(C)CC[C@H]1C(=O)O[C@H](C(=O)c3cccs3)C[C@]21C
0.036

----------
- target-entity: Kappa-type opioid receptor (Homo sapiens)
- experimental-protocol: Displacement of [3H]U69593 from human recombinant kappa opioid receptor expressed in CHO cells after 2 hrs by liquid scintillation counting
Overview of reported Ki across a group of compounds:

>>> endpoint_value("COC(=O)[C@@H]1C[C@H](OC(C)=O)C(=O)[C@H]2[C@@]1(C)CC[C@H]1C(=O)O[C@H](C(=O)c3cc4ccccc4o3)C[C@]21C")
"> 10 µM"

Query Ki for COC(=O)[C@@H]1C[C@H](OC(C)=O)C(=O)[C@H]2[C@@]1(C)CC[C@H]1C(=O)O[C@H](C(=O)c3csc4ccccc34)C[C@]21C
> 10 µM

Query Ki for COC(=O)[C@@H]1C[C@H](OC(C)=O)C(=O)[C@H]2[C@@]1(C)CC[C@H]1C(=O)O[C@H](C(=O)c3ccc(OC)cc3)C[C@]21C
> 10 µM
